# Tested on: P2Y
# assay-notes: Binding P2Y (ag)
# Parameters: species or system rat
Form field: % Inhibition of Control Specific Binding @ 10 μM (one value per entry).
Only the number, expressed in %, is required.

stdin: So what does the record say about % Inhibition of Control Specific Binding @ 10 μM for CC1(C)C(=O)N(c2ccc(C#N)c(C(F)(F)F)c2)C(=S)N1c1ccc(C(=O)O)c(F)c1 [(MI)] ?
stdout: −19

stdin: So what does the record say about % Inhibition of Control Specific Binding @ 10 μM for CC1(C)C(=O)N(c2ccc(C#N)c(C(F)(F)F)c2)C(=S)N1c1ccc(C(N)=O)c(F)c1 [(MII)] ?
stdout: −2

stdin: So what does the record say about % Inhibition of Control Specific Binding @ 10 μM for CC1(C)C(=O)N(c2ccc(C#N)c(C(F)(F)F)c2)C(=O)N1c1ccc(C(N)=O)c(F)c1 [(MIII)] ?
stdout: −1

stdin: So what does the record say about % Inhibition of Control Specific Binding @ 10 μM for CNC(=O)c1ccc(N2C(=O)N(c3ccc(C#N)c(C(F)(F)F)c3)C(=O)C2(C)C)cc1F [(MIV)] ?
stdout: 0

====

Form field: inhibition at 10 µM (one value per entry).
# test-system: GnRH (LH-RH) (Rattus norvegicus, UniProt P30969)
# Construct: rat pituitary gland; from tissue; host or cells: rat pituitary gland
# Sequence (P30969 whole entry): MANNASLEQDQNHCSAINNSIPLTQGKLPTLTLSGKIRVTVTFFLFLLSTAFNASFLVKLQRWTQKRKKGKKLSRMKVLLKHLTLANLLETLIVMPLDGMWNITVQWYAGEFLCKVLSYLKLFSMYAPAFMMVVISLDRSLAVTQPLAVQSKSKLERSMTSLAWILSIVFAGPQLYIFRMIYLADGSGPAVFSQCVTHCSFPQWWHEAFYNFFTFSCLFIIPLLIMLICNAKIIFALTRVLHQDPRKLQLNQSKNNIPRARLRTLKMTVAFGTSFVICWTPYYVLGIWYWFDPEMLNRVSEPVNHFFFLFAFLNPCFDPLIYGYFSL
# assay-notes: Binding GnRH (LH-RH) (ag)
# study-conditions: read-out: % Inhibition of Control Specific Binding @ 10 μM
Only the number, expressed in %, is required.

Please review the entries below; each comes with its answer.
>>> print(df.to_string())
                                   compound  val
0  CC1(C)C(=O)N(c2ccc(C#N)c(C(F)(F)F)c2)C(=S)N1c1ccc(C(N)=O)c(F)c1 [(MII)]  -51
1  CC1(C)C(=O)N(c2ccc(C#N)c(C(F)(F)F)c2)C(=S)N1c1ccc(C(=O)O)c(F)c1 [(MI)]  -21
2  CNC(=O)c1ccc(N2C(=O)N(c3ccc(C#N)c(C(F)(F)F)c3)C(=O)C2(C)C)cc1F [(MIV)]    0

stdin: So what does the record say about inhibition at 10 µM for CC1(C)C(=O)N(c2ccc(C#N)c(C(F)(F)F)c2)C(=O)N1c1ccc(C(N)=O)c(F)c1 [(MIII)] ?
stdout: 5

====

# Tested on: ATPase (Na^+/K^+)
# assay-notes: Enzyme assay ATPase (Na+/K+)
# Assay type: biochemical, porcine
Form field: % Inhibition of Control Values @ 10 μM (one value per entry).
Only the number, expressed in %, is required.

Please review the entries below; each comes with its answer.
                              sample_smiles                         reported_metric  val
0  CC1(C)C(=O)N(c2ccc(C#N)c(C(F)(F)F)c2)C(=O)N1c1ccc(C(N)=O)c(F)c1  % Inhibition of Control Values @ 10 μM    3
1  CNC(=O)c1ccc(N2C(=O)N(c3ccc(C#N)c(C(F)(F)F)c3)C(=O)C2(C)C)cc1F  % Inhibition of Control Values @ 10 μM  −13
2  CC1(C)C(=O)N(c2ccc(C#N)c(C(F)(F)F)c2)C(=S)N1c1ccc(C(=O)O)c(F)c1  % Inhibition of Control Values @ 10 μM    4

// moving on: another record for % Inhibition of Control Values @ 10 μM
stdin: So what does the record say about % Inhibition of Control Values @ 10 μM for `CC1(C)C(=O)N(c2ccc(C#N)c(C(F)(F)F)c2)C(=S)N1c1ccc(C(N)=O)c(F)c1` ?
stdout: −10

====

# test-system: human GABAA α1β3 receptor (Homo sapiens, UniProt P14867+P28472)
# Construct: expressed in transfected cells; host or cells: Xenopus laevis oocytes, cDNA injection
# Sequence (P14867 28-456): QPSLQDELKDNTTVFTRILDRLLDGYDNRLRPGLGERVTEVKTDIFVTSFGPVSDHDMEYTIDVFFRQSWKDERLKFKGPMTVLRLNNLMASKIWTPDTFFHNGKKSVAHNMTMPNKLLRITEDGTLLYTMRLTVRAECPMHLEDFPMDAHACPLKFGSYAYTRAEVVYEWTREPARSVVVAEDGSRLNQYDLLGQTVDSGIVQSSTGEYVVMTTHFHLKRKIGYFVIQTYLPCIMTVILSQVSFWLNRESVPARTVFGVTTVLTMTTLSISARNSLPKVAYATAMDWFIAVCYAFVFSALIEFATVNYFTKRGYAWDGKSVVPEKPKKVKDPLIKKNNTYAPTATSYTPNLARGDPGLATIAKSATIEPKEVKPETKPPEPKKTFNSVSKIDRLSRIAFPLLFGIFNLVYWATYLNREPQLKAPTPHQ
# Sequence (P28472 26-473): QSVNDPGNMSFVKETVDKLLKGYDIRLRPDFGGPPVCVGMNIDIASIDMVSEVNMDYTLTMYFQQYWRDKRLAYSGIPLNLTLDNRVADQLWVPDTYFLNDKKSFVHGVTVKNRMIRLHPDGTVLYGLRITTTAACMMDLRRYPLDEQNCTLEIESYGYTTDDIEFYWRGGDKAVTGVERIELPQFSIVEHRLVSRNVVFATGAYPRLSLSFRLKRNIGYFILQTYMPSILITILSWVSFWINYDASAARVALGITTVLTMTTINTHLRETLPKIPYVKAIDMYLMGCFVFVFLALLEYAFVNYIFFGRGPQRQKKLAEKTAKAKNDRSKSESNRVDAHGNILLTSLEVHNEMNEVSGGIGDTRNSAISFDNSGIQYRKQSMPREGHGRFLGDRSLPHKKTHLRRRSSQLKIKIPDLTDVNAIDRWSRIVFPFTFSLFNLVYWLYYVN
# assay-notes: cell-based
# study-conditions: read-out: α1β3 GABAA % Inhibition @ 100 μM
reported-metric: inhibition at 100 µM (%)
Only the number, expressed in %, is required.

>>> print(df.to_string())
                                   molecule       reported_metric  unit_label  val
0  CC1(C)C(=O)N(c2ccc(C#N)c(C(F)(F)F)c2)C(=S)N1c1ccc(C(N)=O)c(F)c1 [(MII)]  inhibition at 100 µM           %   88
1  CNC(=O)c1ccc(N2C(=O)N(c3ccc(C#N)c(C(F)(F)F)c3)C(=O)C2(C)C)cc1F [(MIV)]  inhibition at 100 µM           %   78
2  CC1(C)C(=O)N(c2ccc(C#N)c(C(F)(F)F)c2)C(=O)N1c1ccc(C(N)=O)c(F)c1 [(MIII)]  inhibition at 100 µM           %   57

stdin: So what does the record say about inhibition at 100 µM for CC1(C)C(=O)N(c2ccc(C#N)c(C(F)(F)F)c2)C(=S)N1c1ccc(C(=O)O)c(F)c1 [(MI)] ?
stdout: 90

====

# test-system: Estrogen ER (ns) (h) (Homo sapiens)
# Construct: MCF-7 cells (cytosol); endogenous in cells; host or cells: MCF-7 cells (cytosol)
# Sequence (P03372 whole entry): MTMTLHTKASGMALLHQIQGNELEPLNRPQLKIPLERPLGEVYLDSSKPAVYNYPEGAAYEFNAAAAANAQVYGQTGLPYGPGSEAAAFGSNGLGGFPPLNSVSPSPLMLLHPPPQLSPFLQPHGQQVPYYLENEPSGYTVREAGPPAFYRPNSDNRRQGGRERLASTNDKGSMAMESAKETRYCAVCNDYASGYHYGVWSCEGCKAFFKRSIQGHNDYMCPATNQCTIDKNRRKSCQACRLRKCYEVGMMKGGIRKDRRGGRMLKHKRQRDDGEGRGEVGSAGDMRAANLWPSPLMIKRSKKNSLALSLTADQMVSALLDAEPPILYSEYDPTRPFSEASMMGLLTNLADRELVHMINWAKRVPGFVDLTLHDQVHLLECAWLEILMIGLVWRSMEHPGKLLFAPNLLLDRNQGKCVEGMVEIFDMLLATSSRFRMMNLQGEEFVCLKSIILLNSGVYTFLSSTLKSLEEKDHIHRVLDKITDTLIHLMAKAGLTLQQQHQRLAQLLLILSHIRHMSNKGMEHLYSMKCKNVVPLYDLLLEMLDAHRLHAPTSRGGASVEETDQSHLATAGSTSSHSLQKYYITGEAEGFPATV
# assay-notes: Binding ER (ns) (h) (ag)
# study-conditions: read-out: % Inhibition of Control Specific Binding @ 10 μM
reported-metric: inhibition at 10 µM (%)
Only the number, expressed in %, is required.

stdin: So what does the record say about inhibition at 10 µM for `CC1(C)C(=O)N(c2ccc(C#N)c(C(F)(F)F)c2)C(=S)N1c1ccc(C(N)=O)c(F)c1` ?
stdout: 3

stdin: So what does the record say about inhibition at 10 µM for `CC1(C)C(=O)N(c2ccc(C#N)c(C(F)(F)F)c2)C(=O)N1c1ccc(C(N)=O)c(F)c1` ?
stdout: -2

stdin: So what does the record say about inhibition at 10 µM for `CNC(=O)c1ccc(N2C(=O)N(c3ccc(C#N)c(C(F)(F)F)c3)C(=O)C2(C)C)cc1F` ?
stdout: -11

stdin: So what does the record say about inhibition at 10 µM for `CC1(C)C(=O)N(c2ccc(C#N)c(C(F)(F)F)c2)C(=S)N1c1ccc(C(=O)O)c(F)c1` ?
stdout: -8

====

Form field: inhibition at 10 µM (one value per entry).
# test-system: Adenosine A2A (h) (Homo sapiens, UniProt P29274)
# Construct: expressed in transfected cells; host or cells: HEK-293 cells
# Sequence (P29274 whole entry): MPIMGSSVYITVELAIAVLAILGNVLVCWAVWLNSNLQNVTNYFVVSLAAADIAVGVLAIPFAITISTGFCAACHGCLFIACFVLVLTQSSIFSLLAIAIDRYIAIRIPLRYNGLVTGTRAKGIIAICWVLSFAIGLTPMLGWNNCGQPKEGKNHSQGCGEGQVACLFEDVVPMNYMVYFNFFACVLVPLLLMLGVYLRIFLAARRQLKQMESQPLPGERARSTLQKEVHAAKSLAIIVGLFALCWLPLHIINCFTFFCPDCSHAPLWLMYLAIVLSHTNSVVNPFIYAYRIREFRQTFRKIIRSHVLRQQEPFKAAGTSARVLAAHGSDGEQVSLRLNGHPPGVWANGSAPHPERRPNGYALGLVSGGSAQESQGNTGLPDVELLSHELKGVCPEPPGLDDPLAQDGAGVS
# assay-notes: Binding A2A (h) (ag)
# study-conditions: read-out: % Inhibition of Control Specific Binding @ 10 μM
Only the number, expressed in %, is required.

Please review the entries below; each comes with its answer.
>>> print(df.to_string())
                              sample_smiles                               test_system  val
0  CC1(C)C(=O)N(c2ccc(C#N)c(C(F)(F)F)c2)C(=S)N1c1ccc(C(=O)O)c(F)c1  Adenosine A2A (h) (Homo sapiens, UniProt P29274)   10
1  CNC(=O)c1ccc(N2C(=O)N(c3ccc(C#N)c(C(F)(F)F)c3)C(=O)C2(C)C)cc1F  Adenosine A2A (h) (Homo sapiens, UniProt P29274)    3
2  CC1(C)C(=O)N(c2ccc(C#N)c(C(F)(F)F)c2)C(=O)N1c1ccc(C(N)=O)c(F)c1  Adenosine A2A (h) (Homo sapiens, UniProt P29274)    2

stdin: So what does the record say about inhibition at 10 µM for `CC1(C)C(=O)N(c2ccc(C#N)c(C(F)(F)F)c2)C(=S)N1c1ccc(C(N)=O)c(F)c1` ?
stdout: -5

====

# test-system: human androgen receptor (Homo sapiens, UniProt P10275, T878A)
# Construct: The human androgen receptor was expressed in LNCAP cells; endogenous in cells; host or cells: LNCaP cells (supernatant of homogenate)
# Sequence (P10275 1-920 T878A): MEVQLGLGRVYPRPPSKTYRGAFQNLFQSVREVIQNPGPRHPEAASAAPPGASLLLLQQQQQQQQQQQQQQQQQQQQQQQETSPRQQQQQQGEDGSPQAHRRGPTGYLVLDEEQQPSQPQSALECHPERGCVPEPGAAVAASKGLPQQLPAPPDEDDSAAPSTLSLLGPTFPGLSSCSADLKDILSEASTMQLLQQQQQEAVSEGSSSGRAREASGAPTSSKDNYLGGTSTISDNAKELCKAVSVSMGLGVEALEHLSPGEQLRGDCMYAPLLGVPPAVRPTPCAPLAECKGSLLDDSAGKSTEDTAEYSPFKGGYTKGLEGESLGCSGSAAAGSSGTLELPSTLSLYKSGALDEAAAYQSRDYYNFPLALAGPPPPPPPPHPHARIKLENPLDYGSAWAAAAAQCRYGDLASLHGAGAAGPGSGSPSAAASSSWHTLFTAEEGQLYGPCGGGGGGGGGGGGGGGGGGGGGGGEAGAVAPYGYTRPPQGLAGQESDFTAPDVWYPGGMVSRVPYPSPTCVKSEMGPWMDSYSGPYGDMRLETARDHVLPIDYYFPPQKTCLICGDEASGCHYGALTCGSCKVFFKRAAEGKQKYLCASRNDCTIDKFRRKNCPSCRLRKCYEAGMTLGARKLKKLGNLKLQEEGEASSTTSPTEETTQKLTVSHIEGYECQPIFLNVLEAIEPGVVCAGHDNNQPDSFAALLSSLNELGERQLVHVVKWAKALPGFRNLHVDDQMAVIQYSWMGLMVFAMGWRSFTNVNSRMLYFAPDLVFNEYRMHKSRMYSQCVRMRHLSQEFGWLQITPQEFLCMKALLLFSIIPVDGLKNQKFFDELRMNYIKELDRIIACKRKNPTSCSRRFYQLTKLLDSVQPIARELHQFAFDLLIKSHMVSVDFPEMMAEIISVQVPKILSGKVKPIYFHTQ
# assay-notes: Human Androgen Receptor (AR) Binding
# study-conditions: AR Binding Activity Ki (μM), second column; Reference Compound Mibolerone
reported-metric: Ki
Please answer using the number first and the unit second.

Please review the entries below; each comes with its answer.
                                   compound  reported_metric       val
0  CNC(=O)c1ccc(N2C(=O)N(c3ccc(C#N)c(C(F)(F)F)c3)C(=O)C2(C)C)cc1F [(MIV)]               Ki   0.97 µM
1  CC1(C)C(=O)N(c2ccc(C#N)c(C(F)(F)F)c2)C(=S)N1c1ccc(C(N)=O)c(F)c1 [(MII)]               Ki  0.051 µM

stdin: So what does the record say about Ki for CC1(C)C(=O)N(c2ccc(C#N)c(C(F)(F)F)c2)C(=O)N1c1ccc(C(N)=O)c(F)c1 [(MIII)] ?
stdout: 1.5 µM
